The reported measurements were obtained from ChEMBL document CHEMBL2177102.

Measured IC50 of individual entries
target: DNA-dependent protein kinase catalytic subunit (Mus musculus); assay: Inhibition of DNA-PK in C57BL6 mouse endothelial cells
reported_metric: IC50 (µM)

* O=c1cc(-c2ccccc2)oc2c(-c3ccccc3)c(N3CCOCC3)cc(O)c12 | 0.034
* CC(=O)c1ccc(N2CCOCC2)cc1O | 0.12

----------
target: Serine/threonine-protein kinase ATR (Homo sapiens, UniProt Q13535); assay: Inhibition of flag-tagged ATR expressed in HEK293T cells using PHAS-1 as substrate after 20 mins by autoradiography
reported_metric: IC50 (µM)

• COc1cc2c(c(OC)c1OC)-c1c(cc3c(c1OC)OCO3)CC(C)C(C)C2 (stereo unspecified) = 7.3

----------
target: DNA-dependent protein kinase catalytic subunit (Homo sapiens, UniProt P78527); assay: Inhibition of DNA-PK assessed as inhibition of p53 peptide phosphorylation
Sequence (P78527 whole entry): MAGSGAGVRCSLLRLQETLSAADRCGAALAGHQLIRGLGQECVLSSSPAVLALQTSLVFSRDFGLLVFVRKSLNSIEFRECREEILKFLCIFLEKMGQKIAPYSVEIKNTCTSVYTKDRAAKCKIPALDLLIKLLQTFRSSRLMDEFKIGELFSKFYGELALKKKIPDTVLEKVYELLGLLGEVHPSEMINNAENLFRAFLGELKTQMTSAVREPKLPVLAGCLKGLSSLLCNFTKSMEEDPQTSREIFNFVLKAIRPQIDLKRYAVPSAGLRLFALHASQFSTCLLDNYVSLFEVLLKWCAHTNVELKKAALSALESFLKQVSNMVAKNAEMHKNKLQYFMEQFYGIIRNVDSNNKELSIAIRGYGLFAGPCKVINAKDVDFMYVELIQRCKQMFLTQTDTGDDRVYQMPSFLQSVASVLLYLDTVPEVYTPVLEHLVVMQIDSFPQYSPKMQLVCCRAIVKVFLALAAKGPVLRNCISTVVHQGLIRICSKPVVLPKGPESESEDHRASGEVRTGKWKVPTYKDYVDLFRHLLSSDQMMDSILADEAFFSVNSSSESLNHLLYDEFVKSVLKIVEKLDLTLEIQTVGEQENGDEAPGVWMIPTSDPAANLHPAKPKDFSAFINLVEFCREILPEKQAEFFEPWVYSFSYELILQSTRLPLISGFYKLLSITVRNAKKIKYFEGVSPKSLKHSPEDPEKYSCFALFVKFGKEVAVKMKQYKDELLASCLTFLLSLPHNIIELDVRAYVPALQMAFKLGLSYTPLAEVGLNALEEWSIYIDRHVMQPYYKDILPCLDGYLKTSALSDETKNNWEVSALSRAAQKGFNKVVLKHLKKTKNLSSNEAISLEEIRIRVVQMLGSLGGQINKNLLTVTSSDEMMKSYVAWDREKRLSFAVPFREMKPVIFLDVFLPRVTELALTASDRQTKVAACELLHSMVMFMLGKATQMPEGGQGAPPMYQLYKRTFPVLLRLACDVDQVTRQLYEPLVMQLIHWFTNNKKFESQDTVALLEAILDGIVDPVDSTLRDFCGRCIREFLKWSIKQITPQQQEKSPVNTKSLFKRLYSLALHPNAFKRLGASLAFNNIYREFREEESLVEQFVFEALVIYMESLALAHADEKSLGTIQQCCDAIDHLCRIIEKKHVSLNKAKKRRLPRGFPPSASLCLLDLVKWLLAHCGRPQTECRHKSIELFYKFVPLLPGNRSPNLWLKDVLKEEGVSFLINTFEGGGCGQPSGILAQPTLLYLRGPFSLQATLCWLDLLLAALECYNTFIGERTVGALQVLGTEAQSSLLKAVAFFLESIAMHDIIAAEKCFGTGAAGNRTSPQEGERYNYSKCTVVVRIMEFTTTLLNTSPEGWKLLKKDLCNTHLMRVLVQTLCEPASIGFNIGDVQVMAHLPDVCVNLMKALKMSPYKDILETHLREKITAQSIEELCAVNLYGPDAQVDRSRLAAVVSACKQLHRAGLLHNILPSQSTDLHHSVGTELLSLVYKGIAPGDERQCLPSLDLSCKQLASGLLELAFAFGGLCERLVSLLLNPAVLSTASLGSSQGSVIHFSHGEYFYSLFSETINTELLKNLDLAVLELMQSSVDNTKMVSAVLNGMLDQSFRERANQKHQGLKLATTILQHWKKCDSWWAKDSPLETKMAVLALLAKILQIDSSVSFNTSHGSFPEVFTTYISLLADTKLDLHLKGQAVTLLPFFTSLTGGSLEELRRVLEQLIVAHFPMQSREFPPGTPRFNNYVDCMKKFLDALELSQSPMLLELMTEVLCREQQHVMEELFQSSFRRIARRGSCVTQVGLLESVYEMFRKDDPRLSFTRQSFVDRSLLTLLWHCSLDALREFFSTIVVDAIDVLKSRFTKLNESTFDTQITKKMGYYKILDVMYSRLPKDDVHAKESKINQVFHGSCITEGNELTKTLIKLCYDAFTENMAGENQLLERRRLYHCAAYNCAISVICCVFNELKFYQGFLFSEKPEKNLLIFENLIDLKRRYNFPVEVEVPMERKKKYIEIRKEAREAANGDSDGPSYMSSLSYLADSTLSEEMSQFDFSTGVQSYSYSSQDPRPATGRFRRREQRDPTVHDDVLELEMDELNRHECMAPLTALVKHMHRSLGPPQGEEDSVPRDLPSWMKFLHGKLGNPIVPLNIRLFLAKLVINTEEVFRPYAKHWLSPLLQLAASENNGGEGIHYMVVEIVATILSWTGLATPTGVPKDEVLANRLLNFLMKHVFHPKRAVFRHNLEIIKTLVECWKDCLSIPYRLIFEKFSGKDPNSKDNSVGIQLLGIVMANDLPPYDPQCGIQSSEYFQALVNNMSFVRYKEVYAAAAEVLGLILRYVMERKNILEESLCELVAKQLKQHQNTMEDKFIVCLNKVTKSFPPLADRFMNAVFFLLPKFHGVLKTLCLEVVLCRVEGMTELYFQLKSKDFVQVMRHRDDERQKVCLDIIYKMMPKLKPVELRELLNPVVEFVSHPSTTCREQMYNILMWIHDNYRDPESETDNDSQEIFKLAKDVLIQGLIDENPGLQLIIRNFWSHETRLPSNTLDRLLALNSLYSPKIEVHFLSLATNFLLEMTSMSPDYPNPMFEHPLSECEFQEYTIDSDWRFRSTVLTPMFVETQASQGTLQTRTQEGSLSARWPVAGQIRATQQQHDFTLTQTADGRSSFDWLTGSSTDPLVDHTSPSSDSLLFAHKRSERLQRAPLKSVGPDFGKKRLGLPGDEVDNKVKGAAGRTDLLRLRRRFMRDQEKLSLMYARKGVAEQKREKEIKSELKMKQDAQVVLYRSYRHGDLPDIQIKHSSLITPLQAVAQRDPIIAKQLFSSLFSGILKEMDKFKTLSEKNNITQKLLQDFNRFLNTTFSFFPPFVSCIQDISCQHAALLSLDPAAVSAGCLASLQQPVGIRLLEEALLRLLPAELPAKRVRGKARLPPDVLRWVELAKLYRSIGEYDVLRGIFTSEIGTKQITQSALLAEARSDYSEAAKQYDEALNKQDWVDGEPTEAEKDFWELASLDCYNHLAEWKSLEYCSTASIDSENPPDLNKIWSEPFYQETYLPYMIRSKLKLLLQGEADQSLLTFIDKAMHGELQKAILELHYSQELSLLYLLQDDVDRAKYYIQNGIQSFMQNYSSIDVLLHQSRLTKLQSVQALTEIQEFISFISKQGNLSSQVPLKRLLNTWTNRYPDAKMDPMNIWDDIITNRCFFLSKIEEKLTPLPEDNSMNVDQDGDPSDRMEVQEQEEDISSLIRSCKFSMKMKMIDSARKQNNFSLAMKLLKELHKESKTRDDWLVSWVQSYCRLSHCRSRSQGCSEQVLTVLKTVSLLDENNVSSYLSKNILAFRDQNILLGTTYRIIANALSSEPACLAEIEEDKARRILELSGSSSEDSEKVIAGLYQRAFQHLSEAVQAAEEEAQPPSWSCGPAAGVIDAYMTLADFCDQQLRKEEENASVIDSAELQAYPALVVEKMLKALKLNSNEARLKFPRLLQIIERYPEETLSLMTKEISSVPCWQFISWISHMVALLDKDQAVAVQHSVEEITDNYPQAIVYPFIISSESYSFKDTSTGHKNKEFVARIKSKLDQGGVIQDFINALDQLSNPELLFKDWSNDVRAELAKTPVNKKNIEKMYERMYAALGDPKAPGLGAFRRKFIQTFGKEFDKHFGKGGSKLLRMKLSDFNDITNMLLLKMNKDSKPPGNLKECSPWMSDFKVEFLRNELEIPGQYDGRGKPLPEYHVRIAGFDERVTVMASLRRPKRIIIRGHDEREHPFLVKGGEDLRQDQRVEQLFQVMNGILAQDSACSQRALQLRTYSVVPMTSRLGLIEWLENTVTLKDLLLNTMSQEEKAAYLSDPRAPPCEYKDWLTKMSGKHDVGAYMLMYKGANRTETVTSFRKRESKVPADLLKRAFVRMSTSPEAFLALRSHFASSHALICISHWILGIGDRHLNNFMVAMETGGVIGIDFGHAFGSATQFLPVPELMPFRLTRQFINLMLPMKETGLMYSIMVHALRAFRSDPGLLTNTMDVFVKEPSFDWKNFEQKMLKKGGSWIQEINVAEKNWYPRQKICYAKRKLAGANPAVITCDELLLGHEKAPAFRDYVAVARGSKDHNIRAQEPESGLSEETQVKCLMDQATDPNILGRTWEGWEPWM
As shown below, each of these compounds has a reported IC50 value.
reported_metric: IC50 (µM)

• COc1cc(C=O)c([N+](=O)[O-])cc1OC = 15
• COc1cc(C=O)ccc1O = 1500
• COc1cc(Br)c(C=O)cc1OC = 30

----------
target: DNA-dependent protein kinase catalytic subunit (Homo sapiens); experiment: Inhibition of DNA-PK
pKi: −log10 of the molar value.
reported_metric: pKi

* CC(CN(C)C)S(=O)(=O)c1ccc(-c2cnc(N)c(C(=O)Nc3ccccc3)n2)cc1 (stereo unspecified) | 8.22

----------
biological target: DNA-dependent protein kinase catalytic subunit (Homo sapiens); experiment: Inhibition of DNA-PK
pIC50: −log10 of the molar value.
# Lookup of reported pIC50 keyed by entry
reported_metric: pIC50

• CS(=O)(=O)c1ccc(-c2cnc(N)c(C(=O)Nc3ccccc3)n2)cc1 = 7.59
• CO[C@@H]1/C=C/C=C(\C)C(=O)NC2=CC(=O)C(NCCCCCCOc3ccc4c(=O)cc(N5CCOCC5)oc4c3)=C(C[C@@H](C)C[C@@H](OC)[C@@H](O)[C@H](C)/C=C(\C)[C@H]1OC(N)=O)C2=O (stereo in doubt) = 5.21
